Entry source: patent US9878054B2

# Test description: Pharmacokinetics of PZ-128 in baboon plasma (LC/MS/MS)
# Assay type: in vivo
# Assay context: male, plasma, iv, 3 and 6 mg/kg iv infusion
Where a SMILES comes first, the peptide text is derived from it. The star is where a group is joined. Palmitoyl = CCCCCCCCCCCCCCCC(=O)*
Measured attribute: half-life

What does the record list as half-life for CCCCCCCCCCCCCCCC(=O)N[C@@H](CCCCN)C(=O)N[C@@H](CCCCN)C(=O)N[C@@H](CO)C(=O)N[C@@H](CCCNC(=N)N)C(=O)N[C@@H](C)C(=O)N[C@@H](CC(C)C)C(=O)N[C@@H](Cc1ccccc1)C(N)=O [PZ-128, palmitate-KKSRALF-NH2] (Palmitoyl-KKSRALF-NH2) ?
0.833 to 1.35 h

* * *

# Tested on: PAR1
# Assay context: read-out: EC50, activation of guinea pig platelets; PRP from vehicle-treated guinea pigs
Measured attribute: pEC50
# pEC50 = -log10(concentration in molar units)

Can you share its pEC50? I mean this substance: "SFLLRN"
5.60

* * *

# Test description: PT, aPTT, bleeding and plasma levels in cynomolgus monkeys after daily iv infusions
# Type: in vivo
# Assay context: both sexes, plasma; cynomolgus monkey; up to 30 mg/kg iv infusion
Where a SMILES comes first, the peptide text is derived from it. The star is where a group is joined. Palmitoyl = CCCCCCCCCCCCCCCC(=O)*
Measured attribute: Cmax

Recorded Cmax for CCCCCCCCCCCCCCCC(=O)N[C@@H](CCCCN)C(=O)N[C@@H](CCCCN)C(=O)N[C@@H](CO)C(=O)N[C@@H](CCCNC(=N)N)C(=O)N[C@@H](C)C(=O)N[C@@H](CC(C)C)C(=O)N[C@@H](Cc1ccccc1)C(N)=O [PZ-128, palmitate-KKSRALF-NH2] (Palmitoyl-KKSRALF-NH2) , please?
> 200 µM
